system: Plasmodium berghei; experiment: Screen against P. berghei liver stage (PbLuc), transformed with Luciferase, at 10uM; format: functional, HepG2; conditions: tested at 10 uM
In all, about 69,000 compounds went through this assay and about 8,600 (12%) showed an effect of 50% or more. Shown is part of a subset that was picked to be rich in strong results.
READOUT NAME: INHIBITION
Please make sure the unit comes right after the number.

# MOLECULE, TARGET ENTITY, READOUT NAME, RESULT
measured = [
    ("COCC1CCN(c2cc(C3CN(C)CCO3)nc(C)n2)CC1 (stereo not given)", "Plasmodium berghei", "INHIBITION", "23.9%"),
    ("c1c2c(nn1CC1CC1)C(CNC1CCOCC1)OCC2 (stereo not given)", "Plasmodium berghei", "INHIBITION", "15.3%"),
    ("CNC(=O)c1nc(COc2ccc3c(c2)OCO3)no1", "Plasmodium berghei", "INHIBITION", "53.7%"),
    ("Cc1noc(C)c1CN(C)Cn1nccc1-c1cccnc1", "Plasmodium berghei", "INHIBITION", "36.2%"),
    ("CCOCCNC(=O)CCC1CCCO1 (stereo not given)", "Plasmodium berghei", "INHIBITION", "42.1%"),
    ("CCC(=O)NCC1(O)CCC(C(C)(C)C)CC1 (stereo not given)", "Plasmodium berghei", "INHIBITION", "-5.92%"),
    ("CCCc1cc(C(=O)N(C)Cc2ccc(OC)c3ncccc23)n(C)n1", "Plasmodium berghei", "INHIBITION", "67.9%"),
    ("CNc1oc(COc2ccc3c(c2)OCO3)nc1C#N", "Plasmodium berghei", "INHIBITION", "41.5%"),
]

Would you mind telling me what INHIBITION value was observed for Cc1cccc(N2CC3(CCN(c4nncs4)C3)CC2=O)c1 (stereo not given) ? 14.5%

====

tested on: Plasmodium berghei; test: Screen against P. berghei liver stage (PbLuc), transformed with Luciferase, at 10uM; assay type: functional, HepG2; settings: tested at 10 uM
In all, about 69,000 compounds went through this assay and about 8,600 (12%) showed an effect of 50% or more. This is one part of a sample in which strong results are shown more often than they occur.
INHIBITION vs 20%: at or above is yes (1), below is no (0).

Study these solved cases before continuing.
# MOLECULE, TARGET ENTITY, LABEL VALUE
rows = [
    ("Cc1nc(CN(C)C2CCN(CC3CCCCC3)C2)no1 (stereo not drawn)", "Plasmodium berghei", "yes (1)"),
    ("O=C(O)[C@]12CCCN(Cc3ccsc3)C[C@H]1CN(c1ccccn1)C2", "Plasmodium berghei", "no (0)"),
    ("CCN(Cc1cnn(C)c1)C(=O)c1ccc(C)c(N2CCNC2=O)c1", "Plasmodium berghei", "yes (1)"),
    ("CCc1ncc(CNCc2cccnc2N(C)C)cn1", "Plasmodium berghei", "no (0)"),
    ("O=C(N1CCCO1)[C@@]12CCO[C@@H]1CCN(C1CCCCC1)C2", "Plasmodium berghei", "no (0)"),
    ("CC(=O)N(Cc1noc(C)n1)C1CCN(Cc2ccon2)C1 (stereo not drawn)", "Plasmodium berghei", "yes (1)"),
]

# check: INHIBITION of Cc1nc2c(N3CCN(CCO)CC3)nc(N)nc2n1C is greater than or equal to 20% no (0)

# check: INHIBITION of CO[C@H]1CC[C@H]2[C@H]1OCCN2C(=O)CCOc1ccccc1 is greater than or equal to 20% no (0)

# check: INHIBITION of CCc1nc(CN(C)C2CCN(CCC(=O)N3CCCCC3)C2)no1 (stereo not drawn) is greater than or equal to 20% yes (1)

# check: INHIBITION of COc1cccc(CNC(C)C)c1OCc1ccc(C)cc1 is greater than or equal to 20% no (0)

# check: INHIBITION of Cc1nc(CN(C)C2CCN(CC3CCC3)C2)no1 (stereo not drawn) is greater than or equal to 20% no (0)

# check: INHIBITION of Cc1ccc(C(=O)N(C)CCCc2cnn(C)c2)cc1N1CCNC1=O is greater than or equal to 20% yes (1)

# check: INHIBITION of CCCN1C[C@H](NC(=O)c2cc(C)no2)[C@@H](c2ccc(OC)cc2)C1 is greater than or equal to 20% yes (1)

# check: INHIBITION of O=C(Nc1ccccc1)C1=CC2(CCNCC2)c2ccccc21 is greater than or equal to 20% yes (1)

# check: INHIBITION of CCCN1C[C@H](NC(=O)c2ccccc2F)[C@@H](c2ccc(OC)cc2)C1 is greater than or equal to 20% yes (1)

# check: INHIBITION of CCCN(Cc1nc(-c2ccc(F)c(OC)c2)oc1C)CC1CCCO1 (stereo not drawn) is greater than or equal to 20% no (0)

# check: INHIBITION of CC(C)c1nc(CN(C)C2CCN(CCNS(C)(=O)=O)C2)no1 (stereo not drawn) is greater than or equal to 20% yes (1)

# check: INHIBITION of CC(C)[C@H]1CN(Cc2nccn2C)C[C@@H]1NC(=O)COCC(N)=O is greater than or equal to 20% yes (1)

# check: INHIBITION of O=C(N1CCC(Oc2ccncc2)CC1)C1(c2ccc(F)cc2)CC1 is greater than or equal to 20% yes (1)

# check: INHIBITION of Cc1nc(CN(C)C2CCN(CC3CCCC3)C2)no1 (stereo not drawn) is greater than or equal to 20% no (0)

# check: INHIBITION of CCOCC(O)CN1CCN(C(=O)Cc2cccc(C)c2)CC1 (stereo not drawn) is greater than or equal to 20% no (0)

# check: INHIBITION of O=C(N1CCC(Oc2ccncc2)C1)C1(c2cccc(F)c2)CC1 (stereo not drawn) is greater than or equal to 20% yes (1)

# check: INHIBITION of Cc1nc(CN(C)C2CCN(CCC(=O)N3CCOCC3)C2)no1 (stereo not drawn) is greater than or equal to 20% yes (1)
